Target: Histone deacetylase 8 (Homo sapiens, UniProt Q9BY41)
Sequence (Q9BY41 whole entry): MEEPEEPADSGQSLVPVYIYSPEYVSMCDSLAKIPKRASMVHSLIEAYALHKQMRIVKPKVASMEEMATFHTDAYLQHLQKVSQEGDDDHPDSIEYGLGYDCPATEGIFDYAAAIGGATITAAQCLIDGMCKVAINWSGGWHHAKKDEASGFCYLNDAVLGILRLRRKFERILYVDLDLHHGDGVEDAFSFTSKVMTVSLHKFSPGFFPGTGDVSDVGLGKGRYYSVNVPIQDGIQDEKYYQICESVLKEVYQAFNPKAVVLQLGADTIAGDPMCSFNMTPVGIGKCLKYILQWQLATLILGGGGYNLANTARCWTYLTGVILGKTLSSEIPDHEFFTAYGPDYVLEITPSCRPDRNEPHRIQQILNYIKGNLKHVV
Assay: Inhibition of human recombinant His-tagged HDAC8 expressed in Escherichia coli BL21 (DE3) using ArgHisLysLys(Ac) as substrate pre-incubated for 1 hr and measured after 1 hr by fluorescence based analysis

query.smiles: O=C(CCCN1CCN(C(=O)Nc2ccnc3ccccc23)CC1)NO
experimental.target: Histone deacetylase 8 (Homo sapiens, UniProt Q9BY41)
result.units: nM
IC50: 2000

====

Molecular target: Histone deacetylase 2 (Homo sapiens, UniProt Q92769)
Sequence (Q92769 whole entry): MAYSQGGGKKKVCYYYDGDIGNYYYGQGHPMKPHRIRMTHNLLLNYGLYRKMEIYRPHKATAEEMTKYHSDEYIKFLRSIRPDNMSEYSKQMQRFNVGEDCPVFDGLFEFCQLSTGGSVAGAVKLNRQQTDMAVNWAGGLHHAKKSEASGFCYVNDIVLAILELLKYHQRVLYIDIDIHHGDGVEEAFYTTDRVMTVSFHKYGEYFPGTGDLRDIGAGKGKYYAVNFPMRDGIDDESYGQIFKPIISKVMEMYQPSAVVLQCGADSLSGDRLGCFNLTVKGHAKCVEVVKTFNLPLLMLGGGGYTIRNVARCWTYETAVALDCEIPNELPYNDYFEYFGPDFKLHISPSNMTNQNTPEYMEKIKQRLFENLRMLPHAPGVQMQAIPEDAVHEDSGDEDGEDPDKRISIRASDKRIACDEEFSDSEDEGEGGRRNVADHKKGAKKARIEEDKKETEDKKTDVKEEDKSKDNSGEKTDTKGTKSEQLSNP
Experiment: Inhibition of human recombinant HDAC2 using Ac-RHKK(Acetyl)-AMC peptide as fluorogenic substrate pre-incubated for 30 mins followed by substrate addition and measured for 60 mins by fluorescence based analysis

query.smiles: COc1ccc(-c2ccc3c(NC(=O)CCCCCCC(=O)NO)n[nH]c3c2)cc1
experimental.target: Histone deacetylase 2 (Homo sapiens, UniProt Q92769)
IC50 [nM]: 4
